Assay: Half life in male dog at 1 to 2 mg/kg, iv
Format: ADME, organism-based, Canis lupus familiaris
Set-up: dose 1-2 mg/kg, route intravenous
Conditions: in vivo

Structure	Unit text	half-life
CCN(C(=O)Cc1ccc(S(C)(=O)=O)cc1)C1CCN(CC[C@@H](c2cc(F)cc(F)c2)N2CCN(S(C)(=O)=O)CC2)CC1	h	8.3
CCN(C(=O)Cc1ccc(S(C)(=O)=O)cc1)C1CCN(CC[C@@H](c2cc(F)cc(F)c2)C2CCN(S(C)(=O)=O)CC2)CC1	h	3.9

====

Target: Cytochrome P450 3A4 (Homo sapiens, UniProt P08684)
Sequence (P08684 whole entry): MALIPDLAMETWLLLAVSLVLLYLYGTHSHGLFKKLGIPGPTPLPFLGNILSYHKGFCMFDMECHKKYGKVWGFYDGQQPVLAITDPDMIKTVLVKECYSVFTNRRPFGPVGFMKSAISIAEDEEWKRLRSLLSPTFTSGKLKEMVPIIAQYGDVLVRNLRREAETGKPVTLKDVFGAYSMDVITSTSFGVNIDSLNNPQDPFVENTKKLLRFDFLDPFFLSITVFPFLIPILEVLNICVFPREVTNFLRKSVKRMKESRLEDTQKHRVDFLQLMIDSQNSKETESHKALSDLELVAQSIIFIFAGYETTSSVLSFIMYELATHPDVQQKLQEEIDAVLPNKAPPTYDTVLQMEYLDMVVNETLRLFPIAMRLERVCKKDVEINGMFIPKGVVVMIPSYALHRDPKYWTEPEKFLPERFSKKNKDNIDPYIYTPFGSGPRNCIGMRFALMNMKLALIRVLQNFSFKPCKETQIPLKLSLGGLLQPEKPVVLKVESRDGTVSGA

Structure	Unit text	IC50
CCN(C(=O)Cc1ccc(S(C)(=O)=O)cc1)C1CCN(CC[C@@H](c2cc(F)cc(F)c2)C2CCN(S(C)(=O)=O)CC2)CC1	µM	9

====

logD: recorded values
Experiment: Lipophilicity, log D of the compound at pH 7.4
Settings: buffer

Compound	logD
CCN(C(=O)Cc1ccc(S(C)(=O)=O)cc1)C1CCN(CCC(c2ccccc2)N2CCN(c3cccc(F)c3)CC2)CC1 (racemic)	3.2
CCN(C(=O)Cc1ccc(S(C)(=O)=O)cc1)C1CCN(CC[C@@H](c2ccccc2)N2CCN(S(=O)(=O)CC(F)(F)F)CC2)CC1	1.8
CCN(C(=O)Cc1ccc(S(C)(=O)=O)cc1)C1CCN(CCC(c2ccccc2)N2CCC(C(C)=O)CC2)CC1 (racemic)	0.9
CCN(C(=O)Cc1ccc(S(C)(=O)=O)cc1)C1CCN(CC[C@@H](c2ccccc2)C2CCN(S(C)(=O)=O)CC2)CC1	1.1

====

Experiment: Lipophilicity, log D of the compound at pH 7.4
Settings: buffer
Measurement kind: logD

Molecule	Reading
CCN(C(=O)Cc1ccc(S(C)(=O)=O)cc1)C1CCN(CC[C@@H](c2cccc(Cl)c2)C2CCN(S(C)(=O)=O)CC2)CC1	1.8
CCN(C(=O)Cc1ccc(S(C)(=O)=O)cc1)C1CCN(CC[C@@H](c2cc(F)cc(F)c2)C2CCN(S(C)(=O)=O)CC2)CC1	1.5
CCN(C(=O)Cc1ccc(S(C)(=O)=O)cc1)C1CCN(CCC(c2ccccc2)N2CCC(Cc3ccccc3)CC2)CC1 (racemic)	3.7
CCN(C(=O)Cc1ccc(S(C)(=O)=O)cc1)C1CCN(CCC(c2ccccc2)C2CCN(C(C)=O)CC2)CC1 (racemic)	1.4

====

This listing pairs compounds with measured microsomal CLint.
Assay: Intrinsic clearance in human liver microsomes
Conditions: liver microsomes

Compound	microsomal CLint
CCN(C(=O)Cc1ccc(S(C)(=O)=O)cc1)C1CCN(CC[C@@H](c2cc(F)cc(Cl)c2)C2CCN(S(C)(=O)=O)CC2)CC1	22 µL/min/mg
CCN(C(=O)Cc1ccc(S(C)(=O)=O)cc1)C1CCN(CCC(c2ccccc2)C2CCN(Cc3ccccc3)CC2)CC1 (racemic)	> 150 µL/min/mg
CCN(C(=O)Cc1ccc(S(C)(=O)=O)cc1)C1CCN(CC[C@@H](c2cccc(F)c2)C2CCN(S(C)(=O)=O)CC2)CC1	18 µL/min/mg
CCN(C(=O)Cc1ccc(S(C)(=O)=O)cc1)C1CCN(CC[C@@H](c2ccccc2)C2CCN(S(=O)(=O)C(F)(F)F)CC2)CC1	28 µL/min/mg
CCN(C(=O)Cc1ccc(S(C)(=O)=O)cc1)C1CCN(CCC(c2ccccc2)N2CCN(c3ccccc3)CC2)CC1 (racemic)	26 µL/min/mg
CCN(C(=O)Cc1ccc(S(C)(=O)=O)cc1)C1CCN(CC[C@@H](c2ccccc2)N2CCN(S(=O)(=O)C(F)(F)F)CC2)CC1	33 µL/min/mg
CCN(C(=O)Cc1ccc(S(C)(=O)=O)cc1)C1CCN(CCC(c2ccccc2)N2CCN(c3cccc(F)c3)CC2)CC1 (racemic)	22 µL/min/mg
CCN(C(=O)Cc1ccc(S(C)(=O)=O)cc1)C1CCN(CC[C@@H](c2cc(C)cc(C)c2)C2CCN(S(C)(=O)=O)CC2)CC1	> 150 µL/min/mg
CCN(C(=O)Cc1ccc(S(C)(=O)=O)cc1)C1CCN(CCC(c2ccccc2)N2CCC(C(C)=O)CC2)CC1 (racemic)	21 µL/min/mg
CCN(C(=O)Cc1ccc(S(C)(=O)=O)cc1)C1CCN(CC[C@@H](c2cc(F)cc(F)c2)C2CCN(S(C)(=O)=O)CC2)CC1	18 µL/min/mg
CCN(C(=O)Cc1ccc(S(C)(=O)=O)cc1)C1CCN(CC[C@@H](c2ccccc2)N2CCN(S(=O)(=O)CC(F)(F)F)CC2)CC1	47 µL/min/mg
CCN(C(=O)Cc1ccc(S(C)(=O)=O)cc1)C1CCN(CCC(c2ccccc2)N2CCN(S(C)(=O)=O)CC2)CC1 (racemic)	< 3 µL/min/mg
CCN(C(=O)Cc1ccc(S(C)(=O)=O)cc1)C1CCN(CC[C@@H](c2cccc(C(F)(F)F)c2)C2CCN(S(C)(=O)=O)CC2)CC1	17 µL/min/mg
CCN(C(=O)Cc1ccc(S(C)(=O)=O)cc1)C1CCN(CCC(c2ccccc2)N2CCN(S(=O)(=O)CC)CC2)CC1 (racemic)	52 µL/min/mg
